TARGET OR SYSTEM: human KV 1.5 (IKur) (Homo sapiens)
Construct: expressed in transfected cells
Sequence (P22460 whole entry): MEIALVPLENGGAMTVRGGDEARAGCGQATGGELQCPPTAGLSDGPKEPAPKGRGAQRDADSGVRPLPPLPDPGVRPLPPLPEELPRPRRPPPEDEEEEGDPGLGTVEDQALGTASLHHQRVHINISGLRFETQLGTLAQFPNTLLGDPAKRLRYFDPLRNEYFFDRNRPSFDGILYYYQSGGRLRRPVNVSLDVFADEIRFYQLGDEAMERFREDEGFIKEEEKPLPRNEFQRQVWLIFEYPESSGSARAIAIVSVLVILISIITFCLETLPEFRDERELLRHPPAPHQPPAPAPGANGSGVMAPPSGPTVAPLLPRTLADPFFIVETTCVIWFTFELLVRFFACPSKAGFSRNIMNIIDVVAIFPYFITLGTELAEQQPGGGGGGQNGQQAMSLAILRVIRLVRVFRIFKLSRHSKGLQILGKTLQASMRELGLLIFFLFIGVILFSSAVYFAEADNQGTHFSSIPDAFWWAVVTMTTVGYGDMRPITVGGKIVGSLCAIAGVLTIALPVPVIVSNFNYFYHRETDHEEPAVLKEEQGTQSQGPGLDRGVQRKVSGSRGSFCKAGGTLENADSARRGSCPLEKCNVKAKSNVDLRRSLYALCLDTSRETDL
PROTOCOL DESCRIPTION: block of IKur current in patch clamped L-929 cells expressing human Kv1.5
Type: cell-based
EXPERIMENTAL CONDITIONS: L929, 0.3 μM; patch clamped mammalian L-929 cells stably expressing human Kv1.5; read-out: KV1_5% Inh L929 @0.3 μM
Source text: Assays to determine the degree of activity of a compound as an IKur inhibitor are well known in the art and are described in references such as J. Gen. Physiol., 101(4):513-543 (April 1993), and Br. J. Pharmacol., 115(2):267-274 (May 1995). Synders, D. J. et al., “A rapidly activating and slowly inactivating potassium channel cloned from human heart: functional analysis after stable mammalian cell culture expression”, J. Gen. Physiol., 101:513-543 (1993). • 2. […]
PROPERTY MEASURED: inhibition at 0.3 µM (%)
Value expressed in %; do not type the unit.

Cc1csc(CNc2nc(-c3cncc(S(N)(=O)=O)c3)nn3ccc(-c4ccccc4)c23)n1	97.2
O=C(Nc1ccc(-n2cncn2)cc1)c1nc(NCc2ccccc2)c2c(-c3ccccc3)ccn2n1	63.5
CS(=O)(=O)Nc1cncc(-c2nc(NCC3CCCCC3)c3c(-c4ccccc4)ccn3n2)c1	90.9
NC(=O)c1cccc(-c2nc(NCc3ccccn3)c3c(-c4ccccc4)ccn3n2)c1	98.2
NS(=O)(=O)c1ccc(CCNC(=O)c2nc(NCc3ccccc3)c3c(-c4ccccc4)ccn3n2)cc1	86.6

So what's the measured inhibition at 0.3 µM for this one? CS(=O)(=O)Nc1cccc(NC(=O)c2nc(NCc3ccccc3)c3c(-c4ccccc4)ccn3n2)c1 93.2

So what's the measured inhibition at 0.3 µM for this one? NS(=O)(=O)c1cncc(-c2nc(NCc3ccccn3)c3c(-c4cccc(F)c4)ccn3n2)c1 95.7

So what's the measured inhibition at 0.3 µM for this one? O=C(O)CCc1cncc(-c2nc(NCc3ccccc3)c3c(-c4ccccc4)ccn3n2)c1 91.3

So what's the measured inhibition at 0.3 µM for this one? N#Cc1cccc(F)c1CNc1nc(-c2cncc(S(N)(=O)=O)c2)nn2ccc(-c3ccccc3)c12 87.7

So what's the measured inhibition at 0.3 µM for this one? NS(=O)(=O)c1cc(-c2nc(NCc3ccccn3)c3c(-c4ccccc4)ccn3n2)cnc1O 84.9

So what's the measured inhibition at 0.3 µM for this one? CS(=O)(=O)Nc1cncc(-c2nc(NCc3ccccc3)c3c(-c4ccccc4)ccn3n2)c1 96.7

So what's the measured inhibition at 0.3 µM for this one? NS(=O)(=O)c1nc(-c2nc(NCc3ccccn3)c3c(-c4ccccc4)ccn3n2)cs1 98.5

So what's the measured inhibition at 0.3 µM for this one? CC(=O)Nc1ccc(-c2nc(NCc3ccccn3)c3c(-c4ccccc4)ccn3n2)cn1 90.2
